Entry source: patent US8470889B2

System: MDA PCa 2b cells;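 note: MDA PCa 2b prostate cancer cells in BRFF-HPC1 with 20% FBS, exposed to compounds for 72 h, viable-cell MTT formazan read as absorbance at 600 nm, 0.5% DMSO vehicle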
Measured IC50 values are reported for all entries that follow.
Measure: IC50

>>> measured_value("CC1=C(/C=C/C(=O)/C=C/c2ccccc2C(F)(F)F)C(C)(C)CCC1O (racemic) [Compound B24]")
"2.9 µM"
>>> measured_value("CC1=C(/C=C/C(=O)/C=C/c2ccc(F)c(C(F)(F)F)c2)C(C)(C)CCC1O (racemic) [Compound B32]")
"10 µM"
>>> measured_value("CC1=CCCC(C)(C)C1/C=C/C(=O)/C=C/c1ccc(C(F)(F)F)cc1 (racemic) [Compound B18]")
"7 µM"
>>> measured_value("CC1=CCCC(C)(C)C1/C=C/C(=O)/C=C/c1cccc([N+](=O)[O-])c1 (racemic) [Compound B21]")
"5.9 µM"
>>> measured_value("CC1=C(/C=C/C(=O)/C=C/c2cc(C(F)(F)F)cc(C(F)(F)F)c2)C(C)(C)CCC1O (racemic) [Compound B28]")
"3.5 µM"
>>> measured_value("CC1=CCCC(C)(C)C1/C=C/C(=O)/C=C/c1cc(C(F)(F)F)ccc1F (racemic) [Compound B20]")
"3 µM"
>>> measured_value("CC1=C(/C=C/C(=O)/C=C/c2ccc(C(F)(F)F)cc2)C(C)(C)CCC1O (racemic) [Compound B26]")
"9.3 µM"

###

System: MDA-MB-231 cells
Assay Overview: Growth inhibition, MDA-MB-231 breast cancer cells
Type: cell-based
Measurement Setup: Homo sapiens, MDA-MB-231; Table 10; read-out: Cytotoxicity, IC50 (μM) MDA-M B231
Measure: IC50 (µM)

>>> measured_value("COc1cc(/C=C/C(=O)CC(=O)/C=C/c2ccc(O)c(OC)c2)ccc1O [Curcumin, reference compound]")
15.7
>>> measured_value("CCn1c2ccccc2c2cc(/C=C/C(O)=C/C(=O)/C=C/C3=C(C)CCCC3(C)C)ccc21 [Compound 9]")
11.7
>>> measured_value("CC1(C)CCC(O)C=C1/C=C/C(=O)/C=C/c1cnc2ccccc2c1 (stereo not drawn) [Compound B95]")
3.6

###

Tested on: LNCaP cells
Assay Overview: MTT cell growth inhibition, LNCaP;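 note: MTT formazan absorbance at 600 nm read after 72 h of compound exposure, IC50 fitted by nonlinear regression of dose-response curves, samples run in triplicate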
Measurement Setup: read-out: Cytotoxicity in prostate cancer cell lines IC50 (μM), LNCaP, Part D table, 72 hours, I.A. = Inactive
Measure: IC50 (µM)

>>> measured_value("CC(O)(CS(=O)(=O)c1ccc(F)cc1)C(=O)Nc1ccc(C#N)c(C(F)(F)F)c1 (stereo not shown) [Bic, bicalutamide, reference compound]")
12.7

###

Here's a batch of molecules along with measured log10(IC50) for 22Rv1 cells.
Measure: log10(IC50) (log10 of the value in µM)

>>> measured_value("CC1=CCCC(C)(C)C1/C=C/C(=O)/C=C/c1ccccc1F (racemic) [Compound B19]")
0.97
>>> measured_value("CC1=CCCC(C)(C)C1/C=C/C(=O)/C=C/c1ccccc1C(F)(F)F (racemic) [Compound B16]")
1.26
>>> measured_value("CC1=C(/C=C/C(=O)/C=C/c2cc(C(F)(F)F)ccc2F)C(C)(C)CCC1O (racemic) [Compound B36]")
0.30
>>> measured_value("CC1=CCCC(C)(C)C1/C=C/C(=O)/C=C/c1cccc(C)c1 (racemic) [Compound B22]")
1.18
>>> measured_value("CC1=C(/C=C/C(=O)/C=C/c2cc(C(F)(F)F)cc(C(F)(F)F)c2)C(C)(C)CCC1O (racemic) [Compound B28]")
0.34
>>> measured_value("CC1=C(/C=C/C(=O)/C=C/c2cccc(C#N)c2)C(C)(C)CCC1O (racemic) [Compound B39]")
0.34
>>> measured_value("CC1=C(/C=C/C(=O)/C=C/c2ccc(C(F)(F)F)cc2F)C(C)(C)CCC1O (racemic) [Compound B35]")
0.58
>>> measured_value("CC1=C(/C=C/C(=O)/C=C/c2ccc([N+](=O)[O-])cc2)C(C)(C)CCC1O (racemic) [Compound B41]")
0.61
>>> measured_value("CC1=C(/C=C/C(=O)/C=C/c2ccccc2C(F)(F)F)C(C)(C)CCC1O (racemic) [Compound B24]")
0.36
>>> measured_value("CC1=C(/C=C/C(=O)/C=C/c2cc(F)cc(C(F)(F)F)c2)C(C)(C)CCC1O (racemic) [Compound B33]")
0.38
>>> measured_value("CC1=CCCC(C)(C)C1/C=C/C(=O)/C=C/c1cccc([N+](=O)[O-])c1 (racemic) [Compound B21]")
0.67
>>> measured_value("CC1=C(/C=C/C(=O)/C=C/c2ccccc2)C(C)(C)CCC1O (racemic) [Compound B23]")
0.90
>>> measured_value("CC1=C(/C=C/C(=O)/C=C/c2cccc(C(F)(F)F)c2)C(C)(C)CCC1O (racemic) [Compound B25]")
0.23
>>> measured_value("CC1=C(/C=C/C(=O)/C=C/c2cccc([N+](=O)[O-])c2)C(C)(C)CCC1O (racemic) [Compound B40]")
0.28
>>> measured_value("CC1=C(/C=C/C(=O)/C=C/c2cccc(F)c2)C(C)(C)CCC1O (racemic) [Compound B30]")
0.75
>>> measured_value("CC1=C(/C=C/C(=O)/C=C/c2ccc(F)cc2)C(C)(C)CCC1O (racemic) [Compound B31]")
0.88
>>> measured_value("CC1=C(/C=C/C(=O)/C=C/c2ccc(C(F)(F)F)cc2)C(C)(C)CCC1O (racemic) [Compound B26]")
0.51
>>> measured_value("CC1=C(/C=C/C(=O)/C=C/c2ccccc2F)C(C)(C)CCC1O (racemic) [Compound B29]")
0.52
>>> measured_value("CC1=CCCC(C)(C)C1/C=C/C(=O)/C=C/c1ccc(C(F)(F)F)cc1 (racemic) [Compound B18]")
0.52
>>> measured_value("CC1=CCCC(C)(C)C1/C=C/C(=O)/C=C/c1cc(C(F)(F)F)ccc1F (racemic) [Compound B20]")
0.54
>>> measured_value("CC1=C(/C=C/C(=O)/C=C/c2ccc(F)c(C(F)(F)F)c2)C(C)(C)CCC1O (racemic) [Compound B32]")
0.51
>>> measured_value("CC1=C(/C=C/C(=O)/C=C/c2c(F)cccc2C(F)(F)F)C(C)(C)CCC1O (racemic) [Compound B37]")
0.95
>>> measured_value("CC1=C(/C=C/C(=O)/C=C/c2cccc(C)c2)C(C)(C)CCC1O (racemic) [Compound B38]")
0.64
